B1: TPR t1 (parent)
chain: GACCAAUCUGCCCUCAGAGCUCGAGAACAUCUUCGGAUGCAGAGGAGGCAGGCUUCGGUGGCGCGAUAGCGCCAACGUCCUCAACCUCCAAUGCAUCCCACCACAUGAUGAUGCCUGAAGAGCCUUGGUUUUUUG

Variants of: B1
ASSAY_INFO: polymerase ribozyme fitness, log enrichment relative to wild type (log ratio); higher = more active; in vitro selection for triplet polymerase activity
Outcome: met for polymerase ribozyme fitness (log ratio) of at least -0.8; not met for anything lower.

variant_descriptor="G48U U55G G69C G93U" label="not met"
variant_descriptor=U109G label="not met"
variant_descriptor="C49A A75U C85G" label="not met"
variant_descriptor="C8A C53A" label=met
variant_descriptor="G17A C79U U106A A111C" label="not met"
variant_descriptor="G60U C82U" label=met
variant_descriptor="G47A C62U U112C C114U A118G" label="not met"
variant_descriptor="G60A U78A G107C A111U" label="not met"
variant_descriptor="G48A C56G C85G C94A A105G" label="not met"
variant_descriptor="U7G C34U G69U C102U U106A" label=met
variant_descriptor="C13A U21A U54C C56G C86A U106G C124U" label="not met"
variant_descriptor="G48A C73U C82G" label=met
variant_descriptor="C73G C101A G120C" label=met
variant_descriptor="G71A A111C" label=met
variant_descriptor="C62U C89G G93A C101U G113C C114U G127C" label="not met"
variant_descriptor="C28U G42C" label="not met"
variant_descriptor="A2G U7A C70U A74C" label="not met"
variant_descriptor="A29G C40A A41U U92G" label="not met"
variant_descriptor="A27U A118G" label="not met"
variant_descriptor="C3U U7A U54C A95G U112A" label=met
variant_descriptor="C8G C64U G135U" label=met
